- system: T1, TNFR2-His protein (Homo sapiens, UniProt P20333)
- T1 construct: Tumor necrosis factor receptor 2 (TNFR2), human; The BLI methods say only 'TNFR2-His protein'; It may be the E. coli ectodomain (residues 33-205, purified on a nickel column) or a bought protein (Sino Biological 10417-H03H); neither the source nor the species is named for this experiment; also called histidine-tagged TNFR2
- T1 sequence (P20333 23-461): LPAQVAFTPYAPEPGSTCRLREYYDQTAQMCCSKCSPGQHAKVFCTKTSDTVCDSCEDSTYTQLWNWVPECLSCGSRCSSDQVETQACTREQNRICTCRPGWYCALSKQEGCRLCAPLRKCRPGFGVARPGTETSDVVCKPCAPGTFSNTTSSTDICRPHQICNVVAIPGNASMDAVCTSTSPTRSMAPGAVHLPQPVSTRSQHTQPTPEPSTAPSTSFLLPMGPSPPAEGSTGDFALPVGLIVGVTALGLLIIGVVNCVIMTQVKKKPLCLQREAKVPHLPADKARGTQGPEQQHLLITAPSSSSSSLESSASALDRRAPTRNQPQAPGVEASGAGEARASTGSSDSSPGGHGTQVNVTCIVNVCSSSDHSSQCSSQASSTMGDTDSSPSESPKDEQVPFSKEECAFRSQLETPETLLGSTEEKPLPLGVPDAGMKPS
- experiment_description: BLI; 30 nM Nanobody-161 IgG1 or mutant immobilised on Protein A biosensors (Gator); 4800 nM-300 nM TNFR2-His in Q Buffer (PBS, 0.02% Tween 20, 0.2% BSA); 25 °C; association 120 s, dissociation 180 s; global 1:1 Langmuir fit
- condition_description: both partners purified
experimental_readout: pKd
Lab note: report pKd as minus log10 of the concentration in molar units, number only.

Challenge: Which pKd value is on record for Nanobody-161 IgG1 R108A (VHH, as the VHH of Wm1, with the stated change) VHH: EVQLVESGGGLVQPGGSLRLSCAASGSIRFINDMGWYRQAPGKGLELVAAIGRGGGSTNYADSVKGRFTISRDNAKNTLYLQMNSLRAEDTAVYYCHAEISQLGYAFADYWGQGTLVTVSS ?
Response given: 6.73

Next binder, please.
Challenge: Which pKd value is on record for Nanobody-161 IgG1 S101A (VHH, as the VHH of Wm1, with the stated change) VHH: EVQLVESGGGLVQPGGSLRLSCAASGSIRFINDMGWYRQAPGKGLELVAAIGRGGGSTNYADSVKGRFTISRDNAKNTLYLQMNSLRAEDTAVYYCHAEIAQLGYAFRDYWGQGTLVTVSS ?
Response given: 5.76
